# TARGET_OR_TEST_SYSTEM: UniProtKB P30989
# Sequence (P30989 whole entry): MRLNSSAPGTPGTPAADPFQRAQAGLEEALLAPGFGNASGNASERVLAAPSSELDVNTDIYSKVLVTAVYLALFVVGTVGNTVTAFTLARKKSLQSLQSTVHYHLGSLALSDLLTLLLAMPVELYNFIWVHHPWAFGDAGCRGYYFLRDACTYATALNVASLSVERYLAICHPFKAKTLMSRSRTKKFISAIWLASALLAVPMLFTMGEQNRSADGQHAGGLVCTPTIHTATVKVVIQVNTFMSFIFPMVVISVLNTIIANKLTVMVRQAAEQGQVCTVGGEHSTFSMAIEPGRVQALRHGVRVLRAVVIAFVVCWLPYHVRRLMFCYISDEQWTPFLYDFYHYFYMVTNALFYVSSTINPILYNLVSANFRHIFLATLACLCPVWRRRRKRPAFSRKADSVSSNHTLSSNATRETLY
# PROTOCOL_SUMMARY: Positive allosteric modulator (PAM) activity at human NTS1 (FAST-0330I), recombinant CHO-K1-mt aequorin cells
# DETAILS: 100-50,000 nM, CHO-K1-mt aequorin
METRIC_NAME: EC50 (µM)
Please respond with the number in µM and leave the unit unwritten.

Recorded result, CCCNc1nc(NC)nc2c(NCC(C)(C)O)nc(NC)nc12 [GAL475] , EC50: 0.355

Each recorded value in this set is attributed to patent US20250057848A1.
